Just for reference, paper PMC10504751 is where these values come from.

test system: HT29; experiment: NCI one-dose SRB anti-proliferative screen; assay type: cell-based; conditions: Homo sapiens, HT-29; HT29, Colon cancer; NCI one dose; read-out: Cell growth inhibition %
This section presents molecules with their documented inhibition at 10 µM values.
State just the number; it will be interpreted in %.

Below, each entry is followed by its recorded inhibition at 10 µM result.
COc1ccc(-c2nc3cc(-c4nnc(SCC(=O)Nc5ccc(C(=O)/C=C/c6cc(OC)c(OC)c(OC)c6)cc5)o4)ccc3[nH]2)cc1 0
COc1ccc(/C=C/C(=O)c2ccc(NC(=O)CSc3nnc(-c4ccc5[nH]c(-c6ccccc6)nc5c4)o3)cc2)cc1 1.01
O=C(CSc1nnc(-c2ccc3[nH]c(-c4ccccc4)nc3c2)o1)Nc1ccc(C(=O)/C=C/c2ccc(Cl)cc2)cc1 0
COc1ccc(-c2nc3cc(-c4nnc(SCC(=O)Nc5ccc(C(=O)/C=C/c6ccc(OC)c(OC)c6)cc5)o4)ccc3[nH]2)cc1 0
O=C(CSc1nnc(-c2ccc3[nH]c(-c4ccccc4)nc3c2)o1)Nc1ccc(C(=O)/C=C/c2ccccc2)cc1 0
COc1ccc(/C=C/C(=O)c2ccc(NC(=O)CSc3nnc(-c4ccc5[nH]c(-c6ccc(OC)cc6)nc5c4)o3)cc2)cc1 0
COc1ccc(-c2nc3cc(-c4nnc(SCC(=O)Nc5ccc(C(=O)/C=C/c6ccc(Cl)cc6)cc5)o4)ccc3[nH]2)cc1 0
COc1cc(/C=C/C(=O)c2ccc(NC(=O)CSc3nnc(-c4ccc5[nH]c(-c6ccccc6)nc5c4)o3)cc2)cc(OC)c1OC 0

Please provide the recorded inhibition at 10 µM for COc1ccc(-c2nc3cc(-c4nnc(SCC(=O)Nc5ccc(C(=O)/C=C/c6ccccc6)cc5)o4)ccc3[nH]2)cc1 , tested on HT29.
14.1

Query COc1ccc(/C=C/C(=O)c2ccc(NC(=O)CSc3nnc(-c4ccc5[nH]c(-c6ccccc6)nc5c4)o3)cc2)cc1OC next
0
